# credit: the RNAGym collection of RNA variant scans (doi:10.7554/elife.80360)

B1: CPEB3 Ribozyme (parent)
chain: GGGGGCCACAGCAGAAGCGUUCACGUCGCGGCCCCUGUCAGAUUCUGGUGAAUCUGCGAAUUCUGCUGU

Variants of: B1
method: self-cleavage, relative activity (ratio to wild type); higher = more cleavage; co-transcriptional
Classes are defined on self-cleavage with ranges class 0: < 0.2; class 1: ≥ 0.2 and < 0.6; class 2: ≥ 0.6

Query: # classify by self-cleavage band: G31U G50C
Result: class 2

Query: # classify by self-cleavage band: U20G G30A
Result: class 0

Query: # classify by self-cleavage band: U20A U26C
Result: class 0

Query: # classify by self-cleavage band: G25A A42C
Result: class 0

Query: # classify by self-cleavage band: G17U U46C
Result: class 1

Query: # classify by self-cleavage band: G3A C32A
Result: class 0

Query: # classify by self-cleavage band: C45U C57A
Result: class 1

Query: # classify by self-cleavage band: G30C C66U
Result: class 2

Query: # classify by self-cleavage band: A16G U61G
Result: class 2

Query: # classify by self-cleavage band: C33A U44A
Result: class 1

Query: # classify by self-cleavage band: A52U G58C
Result: class 2

Query: # classify by self-cleavage band: G11U G37U
Result: class 0

Query: # classify by self-cleavage band: G3U A15U
Result: class 0

Query: # classify by self-cleavage band: C7A U62C
Result: class 1

Query: # classify by self-cleavage band: G1A C66G
Result: class 0

Query: # classify by self-cleavage band: G25A C32U
Result: class 1

Query: # classify by self-cleavage band: G19U G50C
Result: class 1

Query: # classify by self-cleavage band: G4A A8G
Result: class 2

Query: # classify by self-cleavage band: G4A A60C
Result: class 1

Query: # classify by self-cleavage band: U38A U44G
Result: class 2

Query: # classify by self-cleavage band: C39G U46A
Result: class 2
